- System: ASPC1
- experimental.protocol: Soft agar colony formation assay, MTT
- Format: cell-based
- conditions.used: Homo sapiens, 3 independent experiments
endpoint.label: IC50 (nM)
Provide only the numeric value, understood in nM.

Ask | Fill blank: measured IC50 of the compound C[n+]1cc2c3c(ccc2c2ccc4cc5c(cc4c21)OCO5)OCO3.[Cl-] [Sanguinarine chloride] is ____.
Reply | 970

----------
- Tested on: BaF3 KRAS G12C/Y96D
- experimental.protocol: MTT assay for cell viability
- Format: cell-based
- conditions.used: Mus musculus, 48 h, 3 independent experiments
endpoint.label: IC50 (µM)
Provide only the numeric value, understood in µM.

Ask | Fill blank: measured IC50 of the compound C[n+]1cc2c3c(ccc2c2ccc4cc5c(cc4c21)OCO5)OCO3.[Cl-] [Sanguinarine chloride] is ____.
Reply | 1.76
